- System: Puccinia recondita
- method.notes: Puccinia recondita test (wheat)/curative
- test.context: application rate 62.5 g/ha, curative, evaluation 8 days after inoculation
Quick list: Efficacy in % found per entry.
Report the figure in % without appending any unit label.

CCCN(CCOc1c(Cl)cc(Cl)cc1Cl)C(=O)n1ccnc1 [(14-2) prochloraz, prochloraz] ... 0
Cc1nn(C)c(F)c1C(=O)Nc1ccccc1C(C)CC(C)C (stereo not drawn) [(1-2)] ... 94
CC(C)CC(C)c1sccc1NC(=O)c1cn(C)nc1C(F)(F)F (stereo not drawn) [(6-14) penthiopyrad, penthiopyrad] ... 44

In: Query: Efficacy in % found; subject: CCCN(CC)CC1COC2(CCC(C(C)(C)C)CC2)O1 (stereo not drawn) [(19-10) spiroxamine, spiroxamine]
Out: 0

In: Also, CO/N=C(/C(=O)OC)c1ccccc1COc1ccccc1C [(2-9) kresoxim-methyl, kresoxim-methyl] please.
Out: 0

In: Also, N#Cc1c[nH]cc1-c1cccc2c1OC(F)(F)O2 [(16-2) fludioxonil, fludioxonil] please.
Out: 0
